tested on: tMCAO rats; assay: Neurobehavioral examination (Bederson's score), tMCAO time window study; format: in vivo, rat; conditions: 2 hours ischemia and 24 hours reperfusion, 1 mg/kg, 3 h
Assign Neurobehavioral value to each entry below.

# input Give tMCAO rats Neurobehavioral value for the following molecule: COCCOC(=O)C1=C(C)NC(C)=C(C(=O)OC(C)C)C1c1cccc([N+](=O)[O-])c1 (stereo not shown) [Nimodipine, reference compound]
# output 2.09 ± 0.63

# input Provide Neurobehavioral value, tested on tMCAO rats, for O=C1C[C@@H](c2ccccc2)Oc2cc(O)cc(O)c21 [(S)-pinocembrin, reference compound] .
# output 1.29 ± 0.72

# input Report measured Neurobehavioral value on tMCAO rats; entry: O=C1C[C@H](c2ccccc2)Oc2cc(O)cc(O)c21 [(R)-pinocembrin]
# output 1.42 ± 0.82

# input Give measured Neurobehavioral value for O=C1CC(c2ccccc2)Oc2cc(O)cc(O)c21 (racemic) [Pinocembrin racemate, pinocembrin racemate] (tMCAO rats).
# output 1.44 ± 0.72

----------
assay: in vivo; conditions: SD, rat, iv
measurement-kind: LD50 (mg/kg)
# output: bare number, implied unit mg/kg

# input Look up and state reported LD50 for O=C1C[C@@H](c2ccccc2)Oc2cc(O)cc(O)c21 [(S)-pinocembrin, reference compound]
# output 375

# input Give the measured LD50 for O=C1CC(c2ccccc2)Oc2cc(O)cc(O)c21 (racemic) [Pinocembrin racemate, pinocembrin racemate]
# output 491

----------
system: tMCAO rats; assay: Brain water content, tMCAO time window study; assay type: in vivo, rat; settings: 2 hours ischemia and 24 hours reperfusion, 1 mg/kg, 3 h
measurement-kind: Brain water content (%)
// return numeric value only (unit: %, not printed)

# input Answer with reported Brain water content (%) of O=C1C[C@H](c2ccccc2)Oc2cc(O)cc(O)c21 [(R)-pinocembrin]
# output 82.18

# input Recall and state the measured Brain water content (%) for COCCOC(=O)C1=C(C)NC(C)=C(C(=O)OC(C)C)C1c1cccc([N+](=O)[O-])c1 (stereo not shown) [Nimodipine, reference compound] .
# output 83.33

# input Fill in reported Brain water content (%) for this entry: O=C1C[C@@H](c2ccccc2)Oc2cc(O)cc(O)c21 [(S)-pinocembrin, reference compound]
# output 81.95

# input Specify Brain water content (%) for O=C1CC(c2ccccc2)Oc2cc(O)cc(O)c21 (racemic) [Pinocembrin racemate, pinocembrin racemate] and stop.
# output 82.20
